Hello, the source for this data is ChEMBL document CHEMBL1671773, in case you need it.

Tested on: HL-60
MEASUREMENT NOTES: Growth inhibition in human HL60 cells after 72 hrs by trypan blue assay
Format: functional, cell-based
TEST CONTEXT: HL-60, 72 h
pIC50: −log10 of the molar value.

SMILES INPUT | CENSORING QUALIFIER | pIC50
CN(C)CCNc1ncnc2c1ccc1ccccc12 | = | 4.21
CN(C)CCNc1cc2cncnc2c2ccccc12 | = | 4.97
Cc1c2ccncc2c(C)c2c1[nH]c1ccccc12 | = | 6.19
COc1cc(NS(C)(=O)=O)ccc1Nc1c2ccccc2nc2ccccc12 | = | 8.22
CS(=O)(=O)Nc1ccc(Nc2cc3cncnc3c3ccccc23)cc1 | = | 4.58
CS(=O)(=O)Nc1ccc(Nc2cc3ncncc3c3ccccc23)cc1 | < | 4.00
COc1cc(NS(C)(=O)=O)ccc1Nc1cc2ncncc2c2ccccc12 | = | 4.51
CN(C)CCNc1cc2ncncc2c2ccccc12 | = | 5.37
COc1cc(NS(C)(=O)=O)ccc1Nc1cc2cncnc2c2ccccc12 | = | 4.57
